# Ki values compiled below
measurement.target: UniProt:P32245
Sequence (P32245 whole entry): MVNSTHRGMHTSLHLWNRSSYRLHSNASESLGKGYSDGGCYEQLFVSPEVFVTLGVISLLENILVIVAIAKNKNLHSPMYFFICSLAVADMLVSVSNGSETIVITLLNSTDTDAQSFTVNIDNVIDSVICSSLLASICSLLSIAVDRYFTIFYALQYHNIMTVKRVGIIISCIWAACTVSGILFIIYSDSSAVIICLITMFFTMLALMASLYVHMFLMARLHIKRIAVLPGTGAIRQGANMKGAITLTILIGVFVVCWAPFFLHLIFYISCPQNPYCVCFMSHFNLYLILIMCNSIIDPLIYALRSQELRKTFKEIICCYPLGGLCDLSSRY
method.notes: Displacement of [125I]NDP-MSH from human MC4R expressed in HEK293 cells
Type: cell-based
Report the value in nM with no unit label.

Example compounds with recorded Ki:
{"columns": ["compound", "measurement.target", "Ki, nM"],
 "data": [
  ["CC(C)C[C@H](NC(=O)CCN(C)C)c1cc(Cl)ccc1N1CCN(C(=O)[C@@H]2CCO[C@@H]2c2ccc(Cl)cc2)CC1", "UniProt:P32245", 87],
  ["CC(C)C[C@H](NC(=O)CCN)c1cc(C(F)(F)F)ccc1N1CCN(C(=O)C2C(=O)OCC2c2ccc(Cl)cc2)CC1 (stereo partly drawn)", "UniProt:P32245", 180]
]}

Now examine the next entry.
*Q* Lab request: please report Ki under test system UniProt:P32245 for CC(C)C[C@H](NC(=O)CCN(C)C)c1cc(C(F)(F)F)ccc1N1CCN(C(=O)[C@H]2CS(=O)(=O)C[C@@H]2c2ccc(Cl)cc2)CC1
*A* 170

All values here come from ChEMBL document CHEMBL1140816.
